- Tested on: phosphorylation of ERK, KRAS G12C in NCI-H358 cells
- testDescription: pERK inhibition assay, G12C
- Type: cell-based, human
- testParameters: Homo sapiens; NCI-H358, 4 hours of incubation
endpointLabel: IC50 (µM)

a: CCn1c(-c2cc(N3CCOCC3)cnc2[C@H](C)OC)c2c3cc(c(F)cc31)-c1csc(n1)C[C@H](NC(=O)[C@H](C(C)C)N(C)C(=O)[C@H]1C[C@@H](C#CC(F)(F)F)C1)C(=O)N1CCC[C@H](N1)C(=O)OCC(C)(C)C2 (atropisomer, axis not shown; (M))
b: CO[C@@H](C)c1ncc(N2CCN(C)CC2)cc1-c1c2c3cc(c(F)cc3n1CC(F)(F)F)-c1csc(n1)C[C@H](NC(=O)[C@@H](CC(=O)N1CC(C#CC(F)(F)F)C1)C(C)C)C(=O)N1CCC[C@H](N1)C(=O)OCC(C)(C)C2
Task item: Among a and b , which shows a numerically higher IC50 result? Give the chosen item's label as your response.
Reply: b
(b: 0.221 µM, a: 0.011 µM)

---

- testDescription: Single Dose Pharmacokinetics (SDPK) study in female BALB/c mice
- Assay type: in vivo
- testParameters: mouse; 30 mg/kg, po, female BALB/c mice, plasma
- Protocol: The purpose of this study was to determine the pharmacokinetics of selected compounds following single intravenous bolus or oral gavage administration in female BALB/c mice. […] The concentration of compound in plasma samples was determined using LC-MS/MS method. The pharmacokinetic parameters were calculated by non-compartmental analysis.
endpointLabel: AUC(0-t) (ng·h/mL)

>>> measurednumber("CC#CC(=O)N1CC[C@H](C(=O)N(C)[C@H](C(=O)N[C@H]2Cc3nc(cs3)-c3ccc4c(c3)c(c(-c3cccnc3[C@H](C)OC)n4CC)CC(C)(C)COC(=O)[C@@H]3CCCN(N3)C2=O)C(C)C)C1 [Example A168, reference compound]")
1580
>>> measurednumber("CCn1c(-c2cc(N3CCOCC3)cnc2[C@H](C)OC)c2c3cc(c(F)cc31)-c1csc(n1)C[C@H](NC(=O)[C@H](C(C)C)N(C)C(=O)[C@H]1C[C@@H](C#CC(F)(F)F)C1)C(=O)N1CCC[C@H](N1)C(=O)OCC(C)(C)C2 (atropisomer, axis not shown; (M))")
2180

---

- systemUnderTest: KRAS G12C-BRAF complex (Homo sapiens, UniProt P01116+P62937, G12C)
- Construct: expressed in transfected cells
- Sequence (P01116 1-188 isoform P01116-2 G12C): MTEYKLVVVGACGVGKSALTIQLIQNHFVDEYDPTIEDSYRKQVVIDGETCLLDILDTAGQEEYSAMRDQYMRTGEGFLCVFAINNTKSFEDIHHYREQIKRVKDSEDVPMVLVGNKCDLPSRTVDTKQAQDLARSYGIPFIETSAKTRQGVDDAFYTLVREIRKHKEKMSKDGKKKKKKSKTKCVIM
- Sequence (P62937 whole entry): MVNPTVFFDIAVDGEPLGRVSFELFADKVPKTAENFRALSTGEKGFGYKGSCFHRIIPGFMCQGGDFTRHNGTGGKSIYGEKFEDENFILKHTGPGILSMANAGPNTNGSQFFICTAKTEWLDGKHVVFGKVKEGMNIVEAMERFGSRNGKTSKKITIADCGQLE
- testDescription: KRAS G12C-BRAF NanoBit assay in HEK293 cells
- Assay type: cell-based
- testParameters: HEK293 stable cell pool, 3 hours of incubation
This listing pairs compounds with measured IC50.
Give just the numeric value; µM need not be written.

Some solved entries appear below for comparison.
>>> measurednumber("CCn1c(-c2cc(N3CCN(C)CC3)cnc2[C@H](C)OC)c2c3cc(c(F)cc31)-c1csc(n1)C[C@H](NC(=O)[C@H](C(C)C)N(C)C(=O)N1CC(C#CC(F)(F)F)C1)C(=O)N1CCC[C@H](N1)C(=O)OCC(C)(C)C2 (atropisomer, axis not shown; (M))")
0.036
>>> measurednumber("CO[C@@H](C)c1ncc(N2CCN(C)CC2)cc1-c1c2c3cc(c(F)cc3n1CC(F)(F)F)-c1csc(n1)C[C@H](NC(=O)[C@H](C(C)C)N(C)C(=O)[C@H]1C[C@@H](C#Cc3nccc(C(F)(F)F)n3)C1)C(=O)N1CCC[C@H](N1)C(=O)OCC(C)(C)C2 (atropisomer, axis not shown; (M))")
0.209
>>> measurednumber("CO[C@@H](C)c1ncc(N2CCN(CC(F)(F)F)CC2)cc1-c1c2c3cc(c(F)cc3n1CC(F)(F)F)-c1csc(n1)C[C@H](NC(=O)[C@H](C(C)C)N(C)C(=O)[C@H]1C[C@@H](C#CC(F)(F)F)C1)C(=O)N1CCC[C@H](N1)C(=O)OCC(C)(C)C2 (atropisomer, axis not shown; (M))")
0.335

We now examine a further compound.
Task item: Report IC50 for CO[C@@H](C)c1ncc(N2CCN(C)CC2)cc1-c1c2c3c(F)c(ccc3n1CC(F)(F)F)-c1csc(n1)C[C@H](NC(=O)[C@H](C(C)C)N(C)C(=O)[C@H]1C[C@@H](C#CC(F)(F)F)C1)C(=O)N1CCC[C@H](N1)C(=O)OCC(C)(C)C2 (atropisomer, axis not shown; (M)) please.
Reply: 0.067
